molecular target: Ataxin-2 (Homo sapiens); experiment: qHTS for Inhibitors of ATXN expression.; format: functional
Out of some 400,000 compounds screened, about 2,100 (0.53%) were called active. Roughly 14% stayed inconclusive and do not appear here. The rule behind the calls is not given here. This excerpt belongs to a sample that is enriched for actives.
Answer with one of the outcomes given here: true (1) for active, false (0) for inactive

Example results:
>>> df
                                   compound  label_class
0  CCn1cc(C(=O)N(C)Cc2ccc(OC(F)F)cc2)c(=O)c2ccc(C)nc21    false (0)
1     O=C(O)/C=C/c1cn(Cc2ccccc2)nc1-c1cccs1    false (0)
2             Cn1c2ccccc2c(=O)c2ccc(Cl)cc21    false (0)
3  COc1ccc(Cl)cc1N(CC(=O)N(C)C)S(=O)(=O)c1ccc(C)c([N+](=O)[O-])c1    false (0)
4  CCc1cnc(Nc2nc(C(N)Cc3ccc(Cl)cc3)cs2)nc1 (stereo not given)     true (1)

Exercise: What did this assay record as the result for O=c1c2ccccc2nc2ccccn12 ?
Key: false (0)

Exercise: Next up: Cc1ccc(-n2[nH]c(C)c(/C=N/Nc3ccc([N+](=O)[O-])cc3[N+](=O)[O-])c2=O)cc1
Key: true (1)

Exercise: How about this compound: Cc1ccc(S(=O)(=O)[N-]c2nc3ccccc3nc2-[n+]2ccn(Cc3ccccc3)c2)cc1
Key: false (0)

Exercise: Same thing, different compound: OC(CN1CCOCC1)(c1ccccc1)c1ccccn1 (stereo not given)
Key: false (0)

Exercise: Follow-up item: COC(=O)/C=C1/SC(NNC(=O)c2ccc(Cl)cc2Cl)=NC1=O
Key: false (0)

----------
molecular target: Ataxin-2 (Homo sapiens) (UniProt Q99700); test: qHTS for Inhibitors of ATXN expression.; format: functional
Sequence (Q99700 whole entry): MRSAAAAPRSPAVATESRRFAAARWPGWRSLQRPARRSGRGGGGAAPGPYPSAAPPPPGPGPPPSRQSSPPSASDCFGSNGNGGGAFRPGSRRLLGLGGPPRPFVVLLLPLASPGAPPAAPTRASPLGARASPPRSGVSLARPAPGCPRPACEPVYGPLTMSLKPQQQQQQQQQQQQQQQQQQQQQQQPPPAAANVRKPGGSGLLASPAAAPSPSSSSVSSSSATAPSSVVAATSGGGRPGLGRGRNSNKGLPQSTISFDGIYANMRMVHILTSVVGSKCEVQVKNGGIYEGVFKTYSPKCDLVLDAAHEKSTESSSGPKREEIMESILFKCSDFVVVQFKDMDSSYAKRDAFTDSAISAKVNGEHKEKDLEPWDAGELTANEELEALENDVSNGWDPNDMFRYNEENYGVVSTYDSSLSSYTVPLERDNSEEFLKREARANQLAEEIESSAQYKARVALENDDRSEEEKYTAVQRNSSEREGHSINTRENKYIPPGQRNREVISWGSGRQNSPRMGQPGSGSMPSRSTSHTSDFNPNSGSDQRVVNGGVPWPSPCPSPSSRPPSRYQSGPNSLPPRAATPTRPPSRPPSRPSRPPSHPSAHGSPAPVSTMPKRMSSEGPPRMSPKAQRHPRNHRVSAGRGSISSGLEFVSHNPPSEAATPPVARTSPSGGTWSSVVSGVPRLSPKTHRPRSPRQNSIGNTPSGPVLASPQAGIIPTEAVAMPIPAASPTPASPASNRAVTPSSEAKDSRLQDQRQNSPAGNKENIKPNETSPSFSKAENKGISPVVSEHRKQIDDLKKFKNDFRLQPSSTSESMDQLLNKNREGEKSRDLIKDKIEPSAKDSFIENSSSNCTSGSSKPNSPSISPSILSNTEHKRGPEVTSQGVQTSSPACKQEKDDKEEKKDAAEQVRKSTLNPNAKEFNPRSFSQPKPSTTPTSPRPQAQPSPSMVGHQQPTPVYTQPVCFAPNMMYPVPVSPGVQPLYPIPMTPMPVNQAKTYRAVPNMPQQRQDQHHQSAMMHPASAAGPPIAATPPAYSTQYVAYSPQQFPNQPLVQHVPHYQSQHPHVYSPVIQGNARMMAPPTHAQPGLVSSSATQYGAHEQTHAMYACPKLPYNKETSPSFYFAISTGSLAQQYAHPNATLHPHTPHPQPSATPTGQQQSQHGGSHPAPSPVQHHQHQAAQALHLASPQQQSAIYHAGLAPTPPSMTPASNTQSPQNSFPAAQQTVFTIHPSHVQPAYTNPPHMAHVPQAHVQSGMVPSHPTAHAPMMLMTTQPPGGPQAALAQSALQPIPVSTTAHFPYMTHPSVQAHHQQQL
Hit rate of the full screen: of about 400,000 compounds, about 2,100 (0.53%) were called active. Roughly 14% stayed inconclusive and do not appear here. This is one part of a sample in which actives are shown more often than they occur.
ENDPOINT_NAME: Potency

>>> print(df.to_string())
                                   molecule         obs_value
0  COc1ccc(CCN(Cc2cc3cc(C)ccc3nc2O)C(C)=O)cc1OC          inactive
1  CCOc1ccc2nc(O)c(CN(Cc3ccco3)C(CC)c3nnnn3Cc3ccccc3)cc2c1 (centres undefined)    20 µM (active)
2  CCOC(=O)CNC(=O)C12CC3CC(C1)CC(c1ccc(C)cc1)(C3)C2          inactive
3  COc1ccc(C23CC4CC(CC(C4)C2)C3)cc1C(=O)NCCN(C)C  22.4 µM (active)

----------
molecular target: Ataxin-2 (Homo sapiens) (UniProt Q99700); test: qHTS for Inhibitors of ATXN expression.; format: functional
The whole screen tested about 400,000 compounds, of which about 2,100 (0.53%) were called active. About 14% were inconclusive and are not listed. No rule for the calls is given here. The list comes from a sample in which actives are over-represented; it also holds close analogues and randomly drawn compounds.
Pick one: yes (1) (active), no (0) (inactive)

Below are worked cases with known answers.
                                   compound  label_class
0  N=c1n(Cc2ccccc2)c2ccccc2n1CC(O)COc1ccc(Cl)cc1Cl (stereo unspecified)      yes (1)
1  C/C(Cl)=C\Cn1c(O)c(/N=N/C(=N)S)c2ccccc21      yes (1)
2  Cc1cc(/C=C2\C(=N)N3N=C(c4ccco4)SC3=NC2=O)c(C)n1Cc1ccccc1       no (0)
3  CC1=C/C(=N\OS(=O)(=O)c2ccccc2)C(C(C)C)=CC1=O      yes (1)
4  Cc1cc(C)c2nc(NCCCNC(S)=NCCCN(C)C)c(C#N)cc2c1       no (0)

For the next question, use this compound.
Exercise: Recorded call for Oc1ccc(/C=C/c2ccnc3ccccc23)cc1 ?
Key: no (0)
